meta.source: ChEMBL document CHEMBL3098056

Below are IC50 values measured for Matrix metalloproteinase-9 (Homo sapiens, UniProt P14780).

{"columns": ["Compound", "IC50"],
 "data": [
  ["COc1ncccc1CCC(=O)Nc1ccc2nc(C)cc(N)c2c1", "> 100 µM"],
  ["Cc1cc(N)c2cc(NC(=O)c3cccc(-c4ccc5ncccc5c4)c3)ccc2n1", "> 100 µM"],
  ["Cc1cc(N)c2cc(NC(=O)Nc3ccc(C(=O)c4ccccc4)cc3)ccc2n1", "> 100 µM"]
]}

* * *

Entries and their IC50
Target under test: Interstitial collagenase (Homo sapiens, UniProt P03956)
Sequence (P03956 whole entry): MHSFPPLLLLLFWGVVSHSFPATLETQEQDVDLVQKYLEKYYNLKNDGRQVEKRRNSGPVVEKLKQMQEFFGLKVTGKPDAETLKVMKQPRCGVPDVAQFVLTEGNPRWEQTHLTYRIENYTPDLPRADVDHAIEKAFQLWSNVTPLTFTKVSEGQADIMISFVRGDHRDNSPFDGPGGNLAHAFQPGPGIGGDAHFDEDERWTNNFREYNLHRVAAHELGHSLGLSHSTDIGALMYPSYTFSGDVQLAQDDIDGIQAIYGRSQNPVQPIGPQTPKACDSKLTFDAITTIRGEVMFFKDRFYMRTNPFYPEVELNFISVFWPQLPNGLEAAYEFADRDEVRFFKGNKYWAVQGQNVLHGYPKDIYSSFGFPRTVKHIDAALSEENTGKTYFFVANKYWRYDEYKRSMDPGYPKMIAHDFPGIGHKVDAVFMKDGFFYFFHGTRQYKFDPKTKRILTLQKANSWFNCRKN
Measured metric: IC50

{"columns": ["Compound", "Measured metric", "Measured"],
 "data": [
  ["Cc1cc(N)c2cc(NC(=O)c3ccc(Oc4ccccc4)cc3)ccc2n1", "IC50", "> 100 µM"],
  ["Cc1cc(N)c2cc(NC(=O)CCc3ccccc3C(F)(F)F)ccc2n1", "IC50", "> 100 µM"],
  ["COc1ncccc1CCC(=O)Nc1ccc2nc(C)cc(N)c2c1", "IC50", "> 100 µM"]
]}
